// reported DC50 per item
tested_target: BRAF G466V (Homo sapiens, UniProt P15056, G466V)
Construct: Horizon Discovery (HCT-116 BRAF−/− cells); host or cells: HCT-116 BRAF−/− cells, clone 8, lentiviral transduction
Sequence (P15056 whole entry G466V): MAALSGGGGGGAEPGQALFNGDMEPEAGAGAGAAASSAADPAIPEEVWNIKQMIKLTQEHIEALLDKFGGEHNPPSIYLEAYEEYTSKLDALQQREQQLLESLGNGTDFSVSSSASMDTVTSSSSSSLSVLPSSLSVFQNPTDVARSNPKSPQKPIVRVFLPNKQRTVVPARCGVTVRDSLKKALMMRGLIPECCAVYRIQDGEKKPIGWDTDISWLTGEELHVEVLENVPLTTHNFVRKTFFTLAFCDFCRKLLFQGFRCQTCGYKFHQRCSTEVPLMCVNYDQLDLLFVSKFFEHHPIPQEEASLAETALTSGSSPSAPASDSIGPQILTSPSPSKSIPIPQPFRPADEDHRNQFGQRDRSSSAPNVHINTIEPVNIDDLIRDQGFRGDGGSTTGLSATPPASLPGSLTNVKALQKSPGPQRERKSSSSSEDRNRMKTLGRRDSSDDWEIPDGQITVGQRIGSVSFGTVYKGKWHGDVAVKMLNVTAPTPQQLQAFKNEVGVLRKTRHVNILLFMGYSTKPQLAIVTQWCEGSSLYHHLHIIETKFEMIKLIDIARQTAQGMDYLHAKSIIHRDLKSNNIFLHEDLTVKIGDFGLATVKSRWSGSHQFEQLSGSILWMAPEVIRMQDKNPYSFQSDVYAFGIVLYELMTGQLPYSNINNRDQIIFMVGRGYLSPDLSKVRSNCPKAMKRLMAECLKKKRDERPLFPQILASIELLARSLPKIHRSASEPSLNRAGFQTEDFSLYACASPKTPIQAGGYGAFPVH
procedure_text: BRAF HiBiT degradation assay, C-terminal HiBiT-tagged BRAF G466V overexpressed in HCT-116 BRAF−/− cells (clone 8), Nano-Glo HiBiT Lytic assay
Assay type: cell-based
setup_conditions: BRAF G466V; DC50 at 50%: fitted conc. at Y=50

// below: answered molecules
{"molecule": "CCCS(=O)(=O)Nc1cccc(-c2nc(C)sc2-c2ccnc(Nc3ccc(C4CCN(C(=O)CC5CCN(c6ccc(NC7CCC(=O)NC7=O)cc6)CC5)CC4)cc3)n2)c1F (racemic)", "DC50": "> 500 nM"}
{"molecule": "CCCS(=O)(=O)Nc1cccc(-c2nc(C(C)(C)C)sc2-c2ccnc(NC3CC4(C3)CN(C(=O)CN3CCC5(CC3)CN(c3ccc6c(c3)C(=O)N(C3CCC(=O)NC3=O)C6=O)C5)C4)n2)c1F (racemic)", "DC50": "> 500 nM"}
{"molecule": "CCCS(=O)(=O)Nc1cccc(-c2nc(C(C)(C)C)sc2-c2ccnc(Nc3cccc(OC4CCN(C(=O)[C@@H]5CCN(c6ccc(C7CCC(=O)NC7=O)cn6)C5)CC4)c3)n2)c1F (mixture of isomers)", "DC50": "< 10 nM"}
{"molecule": "CCCS(=O)(=O)Nc1cccc(-c2nc(C(C)(C)C)sc2-c2ccnc(Nc3ccc(C4CCN(CC5CCN(c6ccc([C@H]7CCC(=O)NC7=O)cc6)CC5)CC4)cc3)n2)c1F", "DC50": "> 500 nM"}

Query: Using known records, supply DC50 for CCCS(=O)(=O)Nc1cccc(-c2nc(C3CCN(C(=O)C4(C)CCN(C(=O)CC5CCN(c6ccc(C7CCC(=O)NC7=O)cn6)CC5)CC4)CC3)sc2-c2ccnc(N)n2)c1F (racemic)
Reply: > 500 nM
